System: MDA-MB-231 breast
Experiment: NCI-60 one-dose screen, 48 h (100 = growth as untreated, 0 = no growth, -100 = all killed)
Details: 10 µM unless noted
About 83,000 compounds went through this panel and 20% of them were active in at least one assay; those are over-represented in the sample as a whole. The source made the active and inactive calls. The calls were made as follows: active = growth percent below 10; inactive = the rest.

Molecule	Tested Target	growth
O=c1cc(-c2ccccc2)[nH]c2ccccc12	MDA-MB-231 breast	95.6% (inactive)
COc1cccc(/C=C\C(=O)c2ccccc2)c1	MDA-MB-231 breast	88.5% (inactive)
Cn1c(=O)c2[nH]c(C(O)C(O)C(O)C(O)CO)nc2n(C)c1=O (stereo unspecified)	MDA-MB-231 breast	101% (inactive)
COc1cc(NCCCCN=C(N)NC(N)=NC(C)C)c2ncccc2c1	MDA-MB-231 breast	21.3% (inactive)
COc1nc2c(cc1S(=O)(=O)c1ccccc1)CCc1c-2cnn1Cc1ccccc1	MDA-MB-231 breast	59.1% (inactive)
O=C1/C(=C/c2ccc(F)cc2)CN(C(=O)CCN2CCC(=NO)CC2)C/C1=C\c1ccc(F)cc1	MDA-MB-231 breast	-55.6% (active)
CCC(C)[C@@H]1NC(=O)[C@@H]2CCCN2C(=O)[C@H](Cc2ccccc2)NC(=O)[C@@H]2CCCN2C(=O)[C@H](Cc2ccccc2)NC(=O)[C@@H]2CCCN2C(=O)[C@H](Cc2ccccc2)NC1=O (stereo partly specified)	MDA-MB-231 breast	104% (inactive)
COc1ccc(-c2nn(-c3ccccc3)cc2/C=C2\SC(=O)NC2=O)cc1	MDA-MB-231 breast	84.4% (inactive)
COc1ccc(/C(=C/c2ccc3ccccc3c2)c2nn[nH]n2)cc1OC	MDA-MB-231 breast	44.8% (inactive)
COc1cc(OC)c(/C=C/S(=O)(=O)Cc2ccc(OC)c(N)n2)c(OC)c1	MDA-MB-231 breast	15.3% (inactive)
CC(=O)CC(C)(C)c1ccc(Cl)cc1	MDA-MB-231 breast	106% (inactive)

---

System: MALME-3M melanoma
Test: NCI-60 one-dose screen, 48 h (100 = growth as untreated, 0 = no growth, -100 = all killed)
Conditions: 10 µM unless noted
About 83,000 compounds went through this panel and 20% of them were active in at least one assay; those are over-represented in the sample as a whole.
Hi! Just check whether growth is below 80%. Below gives 1 (yes), equal or above gives 0 (no).

Molecule	Category
CCN(C(=O)CN1CCN(c2cc3c(cc2F)c(=O)c(C(=O)O)cn3CC)CC1)c1nc(-c2ccccc2)cs1	1 (yes)
COc1ccc(C(=O)c2sc3nc4c(c(C(F)(F)F)c3c2N)CN(C(C)=O)CC4)cc1OC	0 (no)
O=c1c2cccc3c(NC4CCCCC4)ccc(c32)c2nc3ccccc3n12	0 (no)
C(=N\Nc1nnn(Cc2ccccc2)n1)/c1ccccc1	1 (yes)
CCN1CCN(Cc2ccc(NC(=O)Nc3nc4ccc(Oc5ccnc(C(=O)NC)c5)cc4s3)cc2C(F)(F)F)CC1	1 (yes)
C=C1CC[C@@H]2[C@](C)(COC(C)=O)[C@H](OC(C)=O)CC[C@@]2(C)[C@@H]1CC(NCc1ccc(F)cc1)C1=CCOC1=O (stereo not given in full)	1 (yes)
CCCCCCCCCCCCCCCCCCNC(=O)[C@H]1CSC(c2ccc(F)c(OC)c2)N1 (stereo not given in full)	1 (yes)
COCCCN=C(N)c1ccc(NC(=O)c2ccc(C(=O)Nc3ccc(C(N)=NCCCOC)cc3)cc2)cc1	1 (yes)
COc1cc(NCCCCN=C(N)N)c2ncccc2c1	1 (yes)
CCCCCCCCSC1=CC(=O)C(OC)=C(OC)C1=O	1 (yes)
C=C1C(=O)O[C@H]2[C@H]1CC/C(Cn1cc(Cn3ccc4cc(Cl)ccc43)nn1)=C\CC[C@@]1(C)O[C@@H]21	1 (yes)
C(=N\Nc1ccccn1)/c1ccccn1	1 (yes)
CN1C2CCC1/C(=C\c1ccc(Cl)cc1)C1=C2[C@@H](c2ccc(Cl)cc2)C(C#N)=C(N)O1 (stereo not given in full)	0 (no)
CC(=O)CC(C)(C)c1ccc(Cl)cc1	0 (no)
C=C1CCC2C3(C)COC(c4ccc(SC)cc4)OC3CCC2(C)C1C/C=C1/C(=O)OCC1O (stereo not given)	0 (no)
Nc1cc(-c2nc3sccn3c2-c2ccnc(NCCCNS(=O)(=O)c3ccc(F)cc3)n2)ccc1F	1 (yes)
COc1ccc(-c2cc(=O)[nH]c3c(OC)c4ccccc4c(OC)c23)cc1	1 (yes)
CC/C=C\C[C@H](O)C/C=C1/C(=O)C=C[C@@H]1C/C=C\CCCC(=O)OC(C)C	1 (yes)
COc1cnc2c(c1)C(=O)c1c-2n(CCCN2CCCC2)c(=O)c2cc([N+](=O)[O-])ccc12	1 (yes)
CC(=O)Oc1cc2cnc3c4cc(OC(C)=O)c(OC(C)=O)cc4ccc3c2cc1OC(C)=O	1 (yes)
S=c1[nH]nc(CSc2ncnc3c2c(-c2ccccc2)cn3-c2ccc(Cl)cc2)o1	0 (no)
Cc1ccc(/C=C2\Oc3cc(OCC(=O)c4ccc(Cl)cc4)ccc3C2=O)cc1	0 (no)
O=C(CN1CCN(c2cc3c(cc2F)c(=O)c(C(=O)O)cn3C2CC2)CC1)Nc1nc(-c2ccccc2)cs1	0 (no)
CCCCCCCCCc1cc(CN2CCCCC2)c(O)c(CN2CCCCC2)c1	1 (yes)
COc1ccc(-c2cc(-c3cccnc3)nc3sc4c(=O)n(-c5ccc(C)cc5)nnc4c23)cc1OC	0 (no)
COC1C/C(=N\O)C2OC(c3ccccc3)OCC2O1 (stereo not given)	0 (no)
Nc1ccc2c(c1)C(=O)NC2=O	0 (no)
C=C1CCC2C3(C)COC(c4ccc(OC)cc4Br)OC3CCC2(C)C1/C=C/C1=CCOC1=O (stereo not given)	0 (no)
CCCCCCCCCCCCCC1=NCCN1CCO	0 (no)
COc1cc(C2CC(=O)Nc3c2c(C)nn3-c2nc3ccccc3[nH]2)cc(OC)c1OC (stereo not given)	0 (no)
COc1ccc(-c2csc(NC(=O)CN3CCN(c4cc5c(cc4F)c(=O)c(C(=O)O)cn5C4CC4)CC3)n2)cc1	1 (yes)
COc1cc(-c2c3c(nc4c2c(C)nn4-c2ccccc2)-c2ccccc2C(=O)C3=O)cc(OC)c1OC	1 (yes)
CCN(CC)CC(C)(C)C(=O)/C=C/c1ccccc1	1 (yes)
CC(C)CC(CC1=CCC2CC1C2(C)C)C1=C(O)C(C)(C)C(=O)C(C)(C)C1=O (stereo not given)	1 (yes)
O=C1C[C@H](N2C(=O)c3ccccc3S2(=O)=O)C2CO[C@@H]1O2	0 (no)
CSc1nc2sc3c(c2c(=O)n1-c1ccc(C(C)C)cc1)CCC(=O)C3	1 (yes)

These measurements were taken from PubChem BioAssay (NCI).
